# SUBJECT OF TEST: T1, GITR expressed on CHO cells (Homo sapiens (Human), UniProt Q9Y5U5 26-241)
# T1 construct: also called glucocorticoid-induced TNFR-related protein; TNFRSF18
# T1 sequence: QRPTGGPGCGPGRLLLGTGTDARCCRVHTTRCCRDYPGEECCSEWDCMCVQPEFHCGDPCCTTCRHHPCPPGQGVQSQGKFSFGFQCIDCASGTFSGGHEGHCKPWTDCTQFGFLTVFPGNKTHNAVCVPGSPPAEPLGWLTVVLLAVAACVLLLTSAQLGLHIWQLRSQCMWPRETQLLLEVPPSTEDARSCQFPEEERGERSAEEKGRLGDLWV
# ASSAY PROTOCOL: flow cytometry on GITR-expressing CHO cells, MFI-FL4
Overview of reported EC50 (read off the curve) across a group of binders:

Solved entries:
# BINDER, EC50 (read off the curve)
rows = [
    ("B5 (VHH, not shown: a dimerising Fc or GST) VHH: QVQLVQSGGGLVQPGESLRLSCAASGSVFSIDSMSWFRQGPGNERELVALITGGRTTTYADSVKGRFTISRANAPNTVHLQMNSLEPEDTAVYYCNAAVSTGWGRNADDYWGQGTQVTVS", "2 to 3 nM"),
    ("H11 (VHH, not shown: a dimerising Fc or GST) VHH: QVQLVQSGGGLVQPGGSLRLSCAASGSVFSIDSMSWFRQAPGNERELVALITGGRTTTYADSVKGRFTISRASAPNTVHLQMNSLKPEDTAVYYCNAVVSTGWGRNADDYWGQGTQVTVS", "2 to 3 nM"),
    ("B12 (VHH, not shown: a dimerising Fc or GST) VHH: QVQLQQSGGGLVQAGGSLRLSCAASGSIFSIDAMGWYRLAPGKQRELVAVIDGVSPNYADSVKGRFTISSDIAKNTVYLQMHSPKPEDTAVYYCNADVSTGWGRPADHYWGQGTQVTVS", "~4 nM"),
]

Find the measured EC50 (read off the curve) of B7 (VHH, not shown: a dimerising Fc or GST) VHH: QVQLQESGGGLVQPGGSLRLSCAASGSVFSIDSMSWFRQTPGNERELVAHITGGRTTTYADSVKGRFTISRASAPNTVHLQMNNLKPEDTAVYYCNAAVSTGWGRNADDYWGQGTQVTVS and report it. ~3 nM

Find the measured EC50 (read off the curve) of C7 (VHH, not shown: a dimerising Fc or GST) VHH: QVQLQESGGGLVQAGGSLRLSCTASGSIFSIDDMGWYRLAPGKQRELVAVHSGSSTNYGDSVKGRFTISGDSAKNTVYLQMHRLEPEDTAVYYCYAAISSGWGRDAEDYWGQGTQVTVS and report it. ~2 nM

Find the measured EC50 (read off the curve) of C4 (VHH, not shown: a dimerising Fc or GST) VHH: QVQLVQSGGGLVQPGESLRLSCAASGSVFSIDSMSWFRQGPGNERELVALITGGRTTTYADSVKGRFTISRANAPNTVHLQMNSLKPEDTAVYYCNAAVSTGWGRSADDYWGQGTQVTVS and report it. 2 to 3 nM
